- experimental_target: SMARCA2 (Homo sapiens, UniProt P51531)
- Sequence (P51531 whole entry): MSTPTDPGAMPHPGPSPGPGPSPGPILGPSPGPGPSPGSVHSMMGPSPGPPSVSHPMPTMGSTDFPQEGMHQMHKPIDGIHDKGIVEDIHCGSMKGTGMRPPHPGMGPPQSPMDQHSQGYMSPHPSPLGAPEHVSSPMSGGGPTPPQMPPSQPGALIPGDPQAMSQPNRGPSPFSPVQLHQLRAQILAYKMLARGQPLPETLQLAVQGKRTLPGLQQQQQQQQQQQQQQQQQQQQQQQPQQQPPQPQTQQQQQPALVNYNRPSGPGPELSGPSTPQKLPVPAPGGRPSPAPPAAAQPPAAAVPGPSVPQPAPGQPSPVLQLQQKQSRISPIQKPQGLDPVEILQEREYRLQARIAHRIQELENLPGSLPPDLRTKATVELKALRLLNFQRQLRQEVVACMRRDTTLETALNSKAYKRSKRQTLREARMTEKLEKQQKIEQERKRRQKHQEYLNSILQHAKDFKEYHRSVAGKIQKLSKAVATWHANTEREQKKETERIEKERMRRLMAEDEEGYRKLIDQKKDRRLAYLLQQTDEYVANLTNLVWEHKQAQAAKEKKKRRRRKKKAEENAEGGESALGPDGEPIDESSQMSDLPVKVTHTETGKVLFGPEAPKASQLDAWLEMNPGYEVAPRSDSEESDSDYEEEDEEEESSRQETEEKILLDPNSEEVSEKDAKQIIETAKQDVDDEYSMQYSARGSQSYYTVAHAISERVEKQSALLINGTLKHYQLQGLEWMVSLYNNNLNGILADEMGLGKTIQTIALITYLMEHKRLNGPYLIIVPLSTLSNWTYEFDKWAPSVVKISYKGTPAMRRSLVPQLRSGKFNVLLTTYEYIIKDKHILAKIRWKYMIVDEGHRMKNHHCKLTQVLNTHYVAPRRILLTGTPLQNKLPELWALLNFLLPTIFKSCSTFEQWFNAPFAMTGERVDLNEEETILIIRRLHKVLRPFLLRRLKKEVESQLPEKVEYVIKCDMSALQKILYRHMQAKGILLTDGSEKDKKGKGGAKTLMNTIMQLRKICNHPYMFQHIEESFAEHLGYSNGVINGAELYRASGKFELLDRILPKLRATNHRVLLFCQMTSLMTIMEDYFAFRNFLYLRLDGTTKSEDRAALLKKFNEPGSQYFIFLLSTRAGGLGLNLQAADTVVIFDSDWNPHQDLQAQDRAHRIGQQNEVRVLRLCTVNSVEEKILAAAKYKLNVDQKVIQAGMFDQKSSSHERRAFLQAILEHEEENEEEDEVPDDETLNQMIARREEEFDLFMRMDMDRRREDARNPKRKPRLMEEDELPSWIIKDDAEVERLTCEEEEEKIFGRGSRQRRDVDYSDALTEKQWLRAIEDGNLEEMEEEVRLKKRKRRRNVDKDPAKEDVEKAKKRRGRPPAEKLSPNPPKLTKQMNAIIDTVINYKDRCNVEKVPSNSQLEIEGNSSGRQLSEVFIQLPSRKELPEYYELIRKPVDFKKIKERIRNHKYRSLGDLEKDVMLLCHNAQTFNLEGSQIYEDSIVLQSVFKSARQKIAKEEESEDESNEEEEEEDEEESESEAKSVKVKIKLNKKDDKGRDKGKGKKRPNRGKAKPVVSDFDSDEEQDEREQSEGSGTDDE
- method: HiBit assay in engineered HT1080 CRISPR knock-in cell, 6 hrs (B series), SMARCA2
- Assay type: cell-based
- cond: HT-1080, HT1080 CRISPR knock-in cells, 6 hrs incubation; read-out: SMARC A2 HT1080 HiBit Dmax (%)
reported_property: Dmax

Below: 2 molecules and their reported Dmax.
Cc1ncsc1-c1ccc([C@H](C)NC(=O)[C@@H]2C[C@@H](O)CN2C(=O)C(c2cc(CCN3CCC(c4ccc5c(c4)C(C)(C)c4nc(=O)c6c(Cl)cccc6n4-5)CC3)no2)C(C)C)cc1 (stereo partly shown): > 90%
Cc1ncsc1-c1ccc(CNC(=O)[C@@H]2C[C@@H](O)CN2C(=O)[C@@H](NC(=O)C2(F)CC2)C(C)(C)C)c(OCC2CCC(N3CCC(c4ccc5c(c4)-n4c(nc(=O)c6c(Cl)cccc64)C5(C)C)CC3)CC2)c1 (stereo partly shown): > 90%

Exam item: Lab note: need Dmax for Cc1ncsc1-c1ccc([C@H](C)NC(=O)[C@@H]2C[C@@H](O)CN2C(=O)[C@H](C(C)C)n2cc(CN3CCC(c4ccc5c(c4)-n4c(nc(=O)c6c(Cl)cccc64)C5(C)C)CC3)nn2)cc1 on SMARCA2 (Homo sapiens, UniProt P51531), anyone have it?
Marked response: 70 to 90%

Exam item: Lab note: need Dmax for C[C@H](NC(=O)[C@@H]1C[C@@H](O)CN1C(=O)[C@@H](n1cc([C@H]2CC[C@H](CN3CCC(c4ccc5c(c4)-n4c(nc(=O)c6c(Cl)cccc64)C5(C)C)CC3)CC2)nn1)C(C)(C)C)c1ccc(-c2scnc2C#CCN2CCOCC2)cc1 on SMARCA2 (Homo sapiens, UniProt P51531), anyone have it?
Marked response: > 90%

Values compiled from patent US20260092071A1.
